Experiment: PK in dog
Details: in vivo, PO 60 mg/kg
attribute_measured: bioavailability (%)
Write it as a number; the unit % goes unstated.

Endpoint output: bioavailability of CCC(C)(C)C(=O)N(O)Cc1cc(F)cc(F)c1 . Value?
4.06

###

Test: PK in dog
Conditions: in vivo, IV 2 mg/kg, read-out: Vdss
attribute_measured: Vd (L/kg)
Write it as a number; the unit L/kg goes unstated.

Endpoint output: Vd of CCC(C)(C)C(=O)N(O)Cc1cc(F)cc(F)c1 . Value?
0.73

###

Below, each of the compounds is paired with its reported half-life value.
Test: Hepatocyte stability, mouse
Type: in vitro ADME
Settings: mouse, hepatocytes, Hepatocyte stability; read-out: Mouse T1/2
Write it as a number; the unit min goes unstated.

| compound | half-life (min) |
| --- | --- |
| CCC(C)(C)C(=O)N(O)Cc1ccccc1 [Compound 92, reference compound] | 24.4 |
| CCC(C)(C)C(=O)N(O)Cc1cc(F)cc(F)c1 | 20.1 |

Consider the record given below.
Endpoint output: half-life of [2H]CC([2H])C(C)(C)C(=O)N(O)Cc1cc(F)cc(F)c1 (stereo not drawn) . Value?
21
